target: T1, Human Siglec-7 (human, UniProt Q9Y286 19-467); assay: flow cytometry, CHO transfectants
T1 construct: Expressed on transfected CHO cells; also called huSiglec-7; CD328
T1 sequence (Q9Y286 19-467): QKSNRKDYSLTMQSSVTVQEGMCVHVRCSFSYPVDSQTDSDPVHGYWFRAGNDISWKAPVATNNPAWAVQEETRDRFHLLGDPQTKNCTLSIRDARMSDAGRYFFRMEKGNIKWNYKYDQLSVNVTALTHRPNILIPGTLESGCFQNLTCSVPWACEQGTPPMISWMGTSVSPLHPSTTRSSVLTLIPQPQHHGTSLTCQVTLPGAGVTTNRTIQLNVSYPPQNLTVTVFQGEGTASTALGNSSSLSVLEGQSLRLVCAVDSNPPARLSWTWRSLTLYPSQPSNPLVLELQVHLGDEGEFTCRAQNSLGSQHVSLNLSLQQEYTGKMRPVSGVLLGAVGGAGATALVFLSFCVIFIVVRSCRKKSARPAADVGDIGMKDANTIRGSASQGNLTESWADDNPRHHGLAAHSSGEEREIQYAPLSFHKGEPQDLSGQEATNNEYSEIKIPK
MEASUREMENT KIND: binding result

- mAbC (antibody, human IgG1, V domains shown) VH: QIQLVQSGPELKKPGETVKISCKASGYTFTNYEMNWVKEAPGKGLKWMGWINTYTGESTYADDFKGRFAFSLETSASTVYLQINNLKDEDVATYFCVRDDYGRSYGFAYWGQGTLVTVSA VL: NIVLTQSPASLTVSLGQRANISCRASESVDSYGNSFMHWYQQKPGQPPKLLIYLASKLESGVPARFSGSGSRTDFTLTIDPVETDDAATYYCHQNNEDPPWTFGGGTKLEIK: no binding
- mAbE (antibody, human IgG1, V domains shown) VH: DVQLVESGGGLVQPGGSRKLSCAASGFTFSTFGMHWVRQAPEKGLEWVAYISSGSNAIYYADTVKGRFTISRDNPKNTLFLQMTSLRSEDTAMYYCASPGYGAWFAYWGQGTLVTVSA VL: ENVLTQSPAIMSASPGEKVTMTCRASSSVSSAYLHWYQQKSGASPKLWIYSTSNLASGVPARFSGSGSGTSYSLTISSVEAEDAATYYCQQYSAYPYTFGGGTKLEIK: no binding
- mAbA (antibody, human IgG1, V domains shown) VH: QVQLQQPGAELVKPGSPVKLSCKASYFTFTSYWMHWVRQRPGQGLEWIGEINPSNGHTNYNEKFESKATLTVDRSSSTAYMQLSSLTSEDSAVFYCANGVESYDFDDALDYWGQGTSVTVSS VL: DIQMTQTTSSLSASLGDRVTISCRASQDINNYLNWYQQKPDGTIKLLIYYTSRLHSGVPSRFSGSGSGTDYSLTINNLEQEDIATYFCQQGNTLPFTFGGGTKLEIK: no binding

Where these numbers come from: patent US20200369765A1
